Recorded GI50, one value per entry.
Tested on: OVCAR-5
Assay: NCI tumour cell line growth inhibition, 48 h
Activity calls are given as the source filed them. Rule as the data show it: active = GI50 up to about 1.1 µM and inactive = higher.

COMPOUND	SYSTEM_UNDER_TEST	GI50
C[C@H]1C(OCCOC2O[C@@H]3O[C@@]4(C)CC[C@H]5[C@H](C)CCC([C@H]2C)[C@@]35O4)O[C@@H]2O[C@@]3(C)CC[C@H]4[C@H](C)CCC1[C@@]24O3 (stereo not given in full)	OVCAR-5	50.7 µM (inactive)
CCOc1ccc(C2Oc3c(cccc3OC)C=C2[N+](=O)[O-])cc1OCC (stereo not given)	OVCAR-5	9.59 µM (inactive)
C/C(=N\O)c1cccc(Nc2c3ccccc3nc3occc23)c1	OVCAR-5	48 µM (inactive)
CC(NC(=O)C(N)CC(=O)O)NC(=O)N1CCCC1 (stereo not given)	OVCAR-5	> 100 µM (inactive)
Cc1nc2cc3ccccc3cc2[nH]c1=O	OVCAR-5	> 100 µM (inactive)

###

System: HT-29
Experiment: NCI tumour cell line growth inhibition, 48 h
Activity calls are given as the source filed them. No stated cut-off is given here; in the data, active = GI50 up to about 1.1 µM and inactive = higher.
ENDPOINT_NAME: GI50

COMPOUND	SYSTEM_UNDER_TEST	ENDPOINT_NAME	RESULT
C[C@]12CC[C@H](O)C[C@H]1CC[C@@H]1[C@@H]2CC[C@]2(C)[C@@H](C3=CC(=O)OC3)[C@@H](O)C[C@]12O	HT-29	GI50	3.27 µM (inactive)
OC1(c2ccc(Cl)cc2)c2ccccc2-c2nc3ccccc3n21 (stereo not given)	HT-29	GI50	72.6 µM (inactive)
CCc1ncc(C(C)(O)c2ccccc2)n1Cc1ccccc1 (stereo not given)	HT-29	GI50	31.8 µM (inactive)
O=[N+]([O-])c1ccc(/C=C\c2ccc3c(c2)OCO3)c([N+](=O)[O-])c1	HT-29	GI50	19.9 µM (inactive)
CCCCOC(=O)CNC(=O)OC/C=C/C#CC#C/C=C/COC(=O)NCC(=O)OCCCC	HT-29	GI50	> 10 µM (inactive)
COc1cc2cnc3c4cc(OC(C)C)c(OC)cc4ccc3c2cc1OC	HT-29	GI50	> 100 µM (inactive)
c1cc2cc(c1)CN1CCNCCN(CCNCC1)Cc1cccc(c1)CN1CCNCCN(CCNCC1)C2	HT-29	GI50	> 100 µM (inactive)
COC(=O)c1cc(NC(=O)Cn2c3ccccc3c3ccccc32)cn1C	HT-29	GI50	49.9 µM (inactive)
COC(=O)Nc1nc2cc(S(=O)(=O)Nc3ccccn3)ccc2[nH]1	HT-29	GI50	43.1 µM (inactive)
Cc1[nH]n(-c2ccccc2)c(=O)c1C(N(CCc1ccccc1)C1=NCC(C)S1)(C(F)(F)F)C(F)(F)F (stereo not given)	HT-29	GI50	17.8 µM (inactive)

###

Tested on: UACC-62
Experiment: NCI tumour cell line growth inhibition, 48 h
Activity calls are given as the source filed them. Rule as the data show it: active = GI50 up to about 1.1 µM and inactive = higher.
Recorded GI50, one value per entry.

COMPOUND	GI50
Cc1[nH]n(-c2ccccc2)c(=O)c1C(N(CCc1ccccc1)C1=NCC(C)S1)(C(F)(F)F)C(F)(F)F (stereo unspecified)	8.71 µM (inactive)
CCOC(=O)c1cn(CC)c2ccc3c(c2c1=O)S(=O)(=O)C=C3	> 100 µM (inactive)
FC(F)(Sc1nc2ccccc2[nH]1)c1nc2ccccc2o1	> 100 µM (inactive)
COc1cccc(C2c3cc4c(cc3OC(N3CCOCC3)C2C)OCO4)c1 (stereo unspecified)	8.47 µM (inactive)
O=C1C2C=CC(n3[nH]c(=O)n(Cc4ccccc4)c3=O)CC2C(=O)N1c1cccc(Cl)c1 (stereo unspecified)	> 100 µM (inactive)
CCNC(=O)COc1ccc(Cl)c(C)c1	> 100 µM (inactive)
CCC1(C(=O)OC)CCc2c(OC)ccc(OC)c2C1=O (stereo unspecified)	> 100 µM (inactive)
N#CC1CC2(C1)OCCS2 (stereo unspecified)	> 100 µM (inactive)
Cn1/c(=N\c2ccc(Cl)cc2)sc2ccccc21	40.6 µM (inactive)
CC1=CC(=O)CC2(C)CCC(C(C)CC(=O)CC(C)C)CC12 (stereo unspecified)	25.5 µM (inactive)
COc1ccc(/C=C/c2nnc(S)[nH]2)cc1OC	> 100 µM (inactive)
